# ASSAYED_SYSTEM: mannose binding protein (MBP) of Acanthamoeba (Acanthamoeba castellanii, UniProt Q6J288)
# METHOD_SUMMARY: Solid-phase assay of 35S-labeled Acanthamoeba binding to Man-BSA coated wells
# Design: species or system Acanthamoeba strain MEEI 0184 (A. castellani)
# CONDITION_SUMMARY: no concentration stated
QUANTITY_MEASURED: Inhibition of amoebic binding to Man-BSA / affinity of amoebic lectin

1. CC(=O)N[C@@H]1C(O)O[C@H](CO)[C@@H](O)[C@@H]1O (some centres unmarked) : did not inhibit
2. OC[C@@H](O)[C@@H](O)[C@H](O)[C@H](O)CO : did not inhibit
3. N[C@@H]1C(O)O[C@H](CO)[C@@H](O)[C@@H]1O (some centres unmarked) : did not inhibit

* * *

# ASSAYED_SYSTEM: UniProtKB Q6J288
# METHOD_SUMMARY: Solid-phase assay of 35S-labeled Acanthamoeba binding to Man-BSA coated wells
# Set-up: species or system Acanthamoeba strain MEEI 0184 (A. castellani)
# CONDITION_SUMMARY: no concentration stated
# Protocol: The Acanthamoeba strain MEEI 0184 (A. castellani based on morphological characteristics) was derived from an infected human cornea and used throughout this study. ATCC strain 30868 should have similar properties. The parasites were axenically cultured in PYG medium. […] After rinsing the cells with PBS to remove unbound Acanthamoeba, 0.1 ml of 2% sodium dodecyl sulfate (SDS) was added to each well, and the radioactivity in aliquots of solubilized material was determined in a scintillation counter.
QUANTITY_MEASURED: Inhibition of amoebic binding to Man-BSA / affinity of amoebic lectin

// known answers, use as guide
1. CO[C@@H]1O[C@H](CO)[C@H](O)[C@H](O)[C@H]1O [methyl-β-D-galactopyranoside] : did not inhibit
2. OC[C@H]1O[C@H](O)[C@@H](O)[C@@H](O)[C@H]1O [α-D-talose] : not inhibitory
3. OCC1OC(OC2C(O)C(CO)OC(OCC3OC(OC4C(O)C(CO)OC(OCC5OC(O)C(O)C(O)C5O)C4O)C(O)C(O)C3O)C2O)C(O)C(O)C1O (stereo not drawn) [Man(α1-3)Man(α1-6)Man-(α1-3)Man(α1-6)Man] : potent inhibitors
4. CO[C@H]1O[C@H](CO)[C@H](O)[C@H](O)[C@H]1O [methyl-α-D-galactopyranoside] : did not inhibit
5. OC[C@H]1OC(O)[C@@H](O)[C@H](O)[C@@H]1O (stereo partly drawn) [D-altrose] : not inhibitory

Incoming: Inhibition of amoebic binding to Man-BSA / affinity of amoebic lectin for OCC1OC(OC2C(O)C(CO)OC(OCC3OC(O)C(O)C(O)C3O)C2O)C(O)C(O)C1O (stereo not drawn) [Man(α1-3)Man(α1-6)Man] ?
Outgoing: potent inhibitors

* * *

# Test system: Acanthamoeba
# METHOD_SUMMARY: Acanthamoeba-induced cytopathic effect (CPE) assay, immortalized corneal epithelial cultures
# Format: cell-based
# CONDITION_SUMMARY: no concentration stated
QUANTITY_MEASURED: Inhibition of amoeba-induced CPE

1. CO[C@@H]1O[C@H](CO)[C@H](O)[C@H](O)[C@H]1O [methyl-β-D-galactopyranoside] : did not inhibit
2. N[C@@H]1C(O)O[C@H](CO)[C@@H](O)[C@@H]1O (some centres unmarked) : did not inhibit
3. CC(=O)N[C@@H]1C(O)O[C@H](CO)[C@@H](O)[C@@H]1O (some centres unmarked) : did not inhibit
4. OC[C@@H](O)[C@@H](O)[C@H](O)[C@H](O)CO : did not inhibit
5. OCC1OC(OC2C(O)C(CO)OC(OCC3OC(OC4C(O)C(CO)OC(OCC5OC(O)C(O)C(O)C5O)C4O)C(O)C(O)C3O)C2O)C(O)C(O)C1O (centres unmarked) : potent inhibitors
6. CO[C@H]1O[C@H](CO)[C@H](O)[C@H](O)[C@H]1O [methyl-α-D-galactopyranoside] : did not inhibit

Incoming: Inhibition of amoeba-induced CPE for OCC1OC(OC2C(O)C(CO)OC(OCC3OC(O)C(O)C(O)C3O)C2O)C(O)C(O)C1O (centres unmarked) ?
Outgoing: potent inhibitors
